The measured values listed here are drawn from paper PMC8592623.

experiment: In vivo pharmacokinetics study after oral administration; details: rat, plasma; oral gavage 12 mg/kg, male SD rats, n = 6
quantity: Cmax (ng/mL)
One number for each entry, in ng/mL.

GET /values?readout=Cmax&item= `C=C[C@@]12CN(C)[C@H]3C[C@]14C(=Nc1ccccc14)[C@H]1C[C@@H]2[C@@H]3CO1`
22.8

###

experiment: In vivo pharmacokinetics study after oral administration; conditions: rat, plasma; oral gavage 12 mg/kg, male SD rats, n = 6
quantity: AUC(0-inf) (ng·h/mL)
Answers are plain numbers, in ng·h/mL.

GET /values?readout=AUC(0-inf)&item= `C=C[C@@]12CN(C)[C@H]3C[C@]14C(=Nc1ccccc14)[C@H]1C[C@@H]2[C@@H]3CO1`
30.2

###

assay: Saturation solubility in distilled water; type: physicochemical; conditions: 37 °C, saturated solution
quantity: solubility at 24 h (µg/mL)
One number for each entry, in µg/mL.

GET /values?readout=solubility at 24 h&item= `C=C[C@@]12CN(C)[C@H]3C[C@]14C(=Nc1ccccc14)[C@H]1C[C@@H]2[C@@H]3CO1`
700

###

test: In vivo pharmacokinetics study after oral administration; settings: rat, plasma; oral gavage 12 mg/kg, male SD rats, n = 6
quantity: Tmax
Quote the value and follow it with the unit of measurement.

GET /values?readout=Tmax&item= `C=C[C@@]12CN(C)[C@H]3C[C@]14C(=Nc1ccccc14)[C@H]1C[C@@H]2[C@@H]3CO1`
19.8 min

###

test: Caco-2 permeability study; type: in vitro ADME; settings: human, apical to basal, 50 μg/mL KME equivalent, 120 min
quantity: Papp A→B at 120 min, 50 µg/mL (×10⁻⁶ cm/s)
One number for each entry, in ×10⁻⁶ cm/s.

GET /values?readout=Papp A→B at 120 min, 50 µg/mL&item= `C=C[C@@]12CN(C)[C@H]3C[C@]14C(=Nc1ccccc14)[C@H]1C[C@@H]2[C@@H]3CO1`
7.78
